test: Phase 2 trial of lurbinectedin monotherapy: plasma pharmacokinetics; type: in vivo; conditions: human, intravenous, 3.2 mg/m^2 as 1-hour infusion, read-out: Mean total plasma Cmax
Observed property: Cmax

COc1ccc2[nH]c3c(c2c1)CCN[C@]31CS[C@@H]2c3c(OC(C)=O)c(C)c4c(c3[C@H](COC1=O)N1[C@@H]2[C@H]2c3c(cc(C)c(OC)c3O)C[C@@H]([C@@H]1O)N2C)OCO4 [lurbinectedin, Lurbinectedin] ... ~107 ng/mL

* * *

assay: physchem; conditions: sodium lactate buffer, pH 3, aqueous buffer
Observed property: solubility (µg/mL)

COc1ccc2[nH]c3c(c2c1)CCN[C@]31CS[C@@H]2c3c(OC(C)=O)c(C)c4c(c3[C@H](COC1=O)N1[C@@H]2[C@H]2c3c(cc(C)c(OC)c3O)C[C@@H]([C@@H]1O)N2C)OCO4 ... 940
